- Test system: A2780
- Test Description: Cytotoxicity against human A2780 cells after 96 hrs by SRB assay
- Assay type: functional, cell-based
- Test Context: A2780, 96 h
Recorded Endpoint: EC50 (µM)

CC(=O)[C@@H]1CC[C@]2(C(=O)OCc3ccccc3)CC[C@]3(C)[C@H](CC[C@@H]4[C@@]5(C)CC[C@H](N)C(C)(C)[C@@H]5CC[C@]43C)[C@@H]12 : 2.2
CC(=O)[C@@H]1CC[C@]2(C(=O)NCCN3CCCC3)CC[C@]3(C)[C@H](CC[C@@H]4[C@@]5(C)CC[C@H](O)C(C)(C)[C@@H]5CC[C@]43C)[C@@H]12 : 2.2
COC(=O)[C@]12CC[C@@H]([C@@H](C)N)[C@@H]1[C@H]1CC[C@@H]3[C@@]4(C)CC[C@H](OC(C)=O)C(C)(C)[C@@H]4CC[C@@]3(C)[C@]1(C)CC2 : 4.7
CC(=O)O[C@H]1CC[C@]2(C)[C@H]3CC[C@@H]4[C@H]5[C@H](/C(C)=N\O)CC[C@]5(C(=O)OCc5ccccc5)CC[C@@]4(C)[C@]3(C)CC[C@H]2C1(C)C : 9.9
CC(=O)[C@@H]1CC[C@]2(C(=O)OCc3ccccc3)CC[C@]3(C)[C@H](CC[C@@H]4[C@@]5(C)CC[C@@H](N)C(C)(C)[C@@H]5CC[C@]43C)[C@@H]12 : 2.8
CNC(=O)[C@@H]1CC[C@]2(C(=O)OC)CC[C@]3(C)[C@H](CC[C@@H]4[C@@]5(C)CC[C@H](OC(C)=O)C(C)(C)[C@@H]5CC[C@]43C)[C@@H]12 : 11.2
CC(=O)O[C@H]1CC[C@]2(C)[C@H]3CC[C@@H]4[C@H]5[C@H](C(C)=O)CC[C@]5(C(=O)NCCN(C)C)CC[C@@]4(C)[C@]3(C)CC[C@H]2C1(C)C : 3.8

###

- Test system: 518A2
- Test Description: Cytotoxicity against human 518A2 cells after 96 hrs by SRB assay
- Type: functional, cell-based
- Test Context: 518A2, 96 h
pEC50: −log10 of the molar value.
The label depends only on pEC50: condition met if it is at least 5, condition not met if it is smaller.

CC(=O)[C@@H]1CC[C@]2(C(=O)NCCN3CCCC3)CC[C@]3(C)[C@H](CC[C@@H]4[C@@]5(C)CC[C@H](O)C(C)(C)[C@@H]5CC[C@]43C)[C@@H]12 : condition met
CC(=O)O[C@H]1CC[C@]2(C)[C@H]3CC[C@@H]4[C@H]5[C@H](C(C)=O)CC[C@]5(C(=O)NCCN(C)C)CC[C@@]4(C)[C@]3(C)CC[C@H]2C1(C)C : condition met
C[C@@H](N)[C@@H]1CC[C@]2(CO)CC[C@]3(C)[C@H](CC[C@@H]4[C@@]5(C)CC[C@H](O)C(C)(C)[C@@H]5CC[C@]43C)[C@@H]12 : condition not met
CC(=O)O[C@H]1CC[C@]2(C)[C@H]3CC[C@@H]4[C@H]5[C@H]([C@H](C)N)CC[C@]5(C(=O)OCc5ccccc5)CC[C@@]4(C)[C@]3(C)CC[C@H]2C1(C)C : condition met
CC(=O)[C@@H]1CC[C@]2(C(=O)NCCN)CC[C@]3(C)[C@H](CC[C@@H]4[C@@]5(C)CC[C@H](O)C(C)(C)[C@@H]5CC[C@]43C)[C@@H]12 : condition met
CC(=O)[C@@H]1CC[C@]2(N)CC[C@]3(C)[C@H](CC[C@@H]4[C@@]5(C)CC[C@H](O)C(C)(C)[C@@H]5CC[C@]43C)[C@@H]12 : condition not met
COC(=O)[C@]12CC[C@@H](/C(C)=N/OC(C)=O)[C@@H]1[C@H]1CC[C@@H]3[C@@]4(C)CC[C@H](OC(C)=O)C(C)(C)[C@@H]4CC[C@@]3(C)[C@]1(C)CC2 : condition not met
CC(=O)[C@@H]1CC[C@]2(C(=O)O)CC[C@]3(C)[C@H](CC[C@@H]4[C@@]5(C)CC[C@H](O)C(C)(C)[C@@H]5CC[C@]43C)[C@@H]12 [PLATANIC ACID] : condition not met
CC(=O)O[C@H]1CC[C@]2(C)[C@H]3CC[C@@H]4[C@H]5[C@H]([C@@H](C)N)CC[C@]5(C(=O)O)CC[C@@]4(C)[C@]3(C)CC[C@H]2C1(C)C : condition not met
